testDescription: soluble on expression in E. coli; label from the status in PepcDB or PDB records
measurementLabel: soluble on expression in E. coli

A selection of reference data follows.
{"itemSequence": "MSLKATSSDDKVTFHALNGDVKVPKNPKRIAVQNYPDEVASLGANVVGTDSWAFPNTFLSKDQKKNMVDLGAPKFNMEKLIAQNPDLIITVDKDQVADYQKVAPTVLVNYKDLSGMNKSLDYFAKLLNREDEKASFLKNFKKEADKQKEKLAKVDVKPAKNTISLLELQGDKVYAFGDNFARGGQALTTGLGFKESSKMAELSKGVGYAEVNTESLGEFDADYIFIDFADKDKEQYAALKNNPAWQNLKAVKEGHVITMDYDKVYFFGGPTAAKEELSLYTDAIIKATKEGHHHHHH", "reportedResult": "soluble"}
{"itemSequence": "MAVPPTYVDLGKSARDIFTKGYGFGLIKLDLKTRSENGLEFKSSGSANTETSKVAGTLETKYKWAEHGLTFTEKWNTDNTLGTEITLEDQLTKGLKLTFDSSFSPNTGKKSGKIKSSYQREHINLGCDVDYDINGTAVHGALVLGLDGWLAGYQMTFEAGRNRITQSNFAVGYKTDEFQLHTNVNDGTEFGGSIYQKVNDNLETAVNLAWTAGNSNTRFGIAAKYQIDSDAAFSAKVNNSSLVGLGYTQTLKPGIKLTLSALLDGKNINAGGHKMGLGLEFEA", "reportedResult": "soluble"}
{"itemSequence": "MSSYKNILVAIDGSYESELAFEKGVSVALRNDANLLLTHVVDTRALQSVATFDAYIYEKLEQEAHSVLDDYENQARERGLEKVRQIIEFGNPKPLLATEIPEREHVDLIMLGATGLNAFERLLIGSSSEYILRHAKVDLLVVRDPEKTL", "reportedResult": "not soluble"}
{"itemSequence": "MPNRPDLCLGVMSIELRHLRAAVAIAEAGSFTAAANALHITQPALTRTVQQLETSLGVRLFDRTSRALALTEDGAGFVEKVRVILGDLDSAVALYTNRSLVLGFSWLLPDPWAQQVIDDVEKNSRATVVPRRYDDPVAALNNATVDAAVVRRDVPGDEFVQHPLFEEQRIAAVSTASPLATRESIDWAEFGTLPLVINTLSGTTSEDLWPNHDGPVVTCSNFDDWLELIAADRGVGTVPEVARRRVTHRNVQFIPLVGAPPAVVRFVYRRNRVTPLLRVLRDAAIRHSPPPGSVTVGQHD", "reportedResult": "not soluble"}

Q: Give me measured soluble on expression in E. coli, please, for this sequence: `MSLGHAKEVKIGVILGFTGPIESLTPSMADGAELAMKEVTDSGLLLDGATVTSVRADSTCVDAAAATAAAERLVTSDKVDGIMGADCSGVTGAILSNVAVPNGVVMISPSATSPALSTADDNGLFFRTAPSDARQGVVMTEVLMEEGIKEVALTYTNNDYGKGLADSFQAAFEAAGGTVTISAAHEDGKADYSAEVGALAAAGGDRLVVAGYVDQGGSGIVRSAIDSGAFDTFHFPDGMIGAKLEENFGDEIEGSSGQHPGTDSPGVAKFSEMVGGAFDSTSPFTPEAYDAAALIMLAMQAANSKDSGDYKDHVMHVANAPGEKIYPGELAKALQIIKDGGEVDYVGATAVELIGPGESAGNYRQITIEGGKITTAKFREGHHHHHH`
Ans: soluble

Q: Check the records and state soluble on expression in E. coli for `MSTRNSRSELEKTAVQLFRKLGTRTVLFHQAAAQALGLFPTDLKSADILNEAGPMTAGELGKKTGLSTGSVTALVDRLEKAGVCGSWKRTPNDRRRVVIVPLTASKKHIKDLFRPLSESTMDLCREYTEEELELIFSFVGKAADIMEEELERLKQ`
Ans: not soluble

Q: Specify soluble on expression in E. coli for `MKITHCKLKKKVQKELLRFFVLEVTARSAADILGIHPNSAVLFYRKIRMVISHYLALAANEVFEGSVELDESYFGGRRKGKRGRGAAGKVVVFGILKRNGRVYTVVVDNAKSDTLMPVIKQKIMPDSIVYTDSLSSYDKLDVSGFIHYRINHSKEFADRQNHINGIENFWNQAKRVLRK` and stop.
Ans: not soluble

Q: For the sequence `MRIMASHDTPVSPAGILIDLDGTVFRGNELIEGAREAIKTLRRMGKKIVFLSNRGNISRAMCRKKLLGAGIETDVNDIVLSSSVTAAFLKKHYRFSKVWVLGEQGLVDELRLAGVQNASEPKEADWLVISLHETLTYDDLNQAFQAAAGGARIIATNKDRSFPNEDGNAIDVAGMIGAIETSAQAKTELVVGKPSWLMAEAACTAMGLSAHECMIIGDSIESDIAMGKLYGMKSALVLTGSAKQGEQRLYTPDYVLDSIKDVTKLAEEGILILEHHHHHH` , report soluble on expression in E. coli.
Ans: not soluble

Q: Quote soluble on expression in E. coli reported for `STYEYKRELREGARGKWINLRQHLNSGTRLEKELIKVDRQIDKKAAEIKEIEDLLFKIEQYKAENNIR` please.
Ans: not soluble

Q: For `MLRSLLKSRQVICGLRELRALSTSQGNESIIDFVDTVTETSEAQNQSFASLLRNSKFMQLGDFNGRLVVGKIAQRVQEDVYIDFGLKFNAVCKVPALNSEAYRSGARVLIRLIDPELSERFLGSKHDLTLLEADAVLVRLLSNVPRQQQQRQKPRGATEEEAPAAPETPAAH` , write its soluble on expression in E. coli.
Ans: not soluble
